# target.or.system: T1, recombinant human IL-6 (human, UniProt P05231 30-212)
# T1 construct: bought protein; also called interleukin-6
# T1 sequence (P05231 30-212 limits assumed): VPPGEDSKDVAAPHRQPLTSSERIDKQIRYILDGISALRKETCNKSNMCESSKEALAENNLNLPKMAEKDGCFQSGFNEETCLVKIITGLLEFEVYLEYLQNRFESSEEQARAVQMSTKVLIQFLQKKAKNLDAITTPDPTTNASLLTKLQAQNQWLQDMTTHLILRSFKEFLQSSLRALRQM
# protocol.details: Biacore, antibody captured on Protein A, IL-6 as analyte
quantity: binding result

Field: example entries. Status: answers known.
>>> result("anti-IL-6 antibody, heavy chain variant I (M34I/G66D/I108V), light chain variant V (M32L/M50D/M88Q) (antibody, human IgG1, V domains shown, engineered human IgG1; also called I/V) VH: EVQLVESGGGLVQPGGSLRLSCAASGFTFSPFAISWVRQAPGKGLEWVAKISPGGSWTYYSDTVTDRFTFSLDTSKSTAYLQMNSLRAEDTAVYYCARQLWGYYALDVWGQGTLVTVSS VL: DIQLTQSPSSLSASVGDRVTITCSASISVSYLYWYQQKPGKAPKLLIYDDSNLASGVPSRFSGSGSGTDFTLTISSLQPEDFATYYCQQWSGYPYTFGQGTKVEIK")
"binds"
>>> result("anti-IL-6 antibody, heavy chain variant I (M34I/G66D/I108V), light chain variant IV (M32L/M50A/N52S/M88Q) (antibody, human IgG1, V domains shown, engineered human IgG1; also called I/IV) VH: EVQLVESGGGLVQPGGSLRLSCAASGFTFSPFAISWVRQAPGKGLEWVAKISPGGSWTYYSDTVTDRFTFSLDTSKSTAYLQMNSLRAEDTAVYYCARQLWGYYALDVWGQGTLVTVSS VL: DIQLTQSPSSLSASVGDRVTITCSASISVSYLYWYQQKPGKAPKLLIYDASSLASGVPSRFSGSGSGTDFTLTISSLQPEDFATYYCQQWSGYPYTFGQGTKVEIK")
"binds"
>>> result("anti-IL-6 antibody, heavy chain variant II (M34W/G66D/I108V), light chain variant III (M32L/M50D/N52S/M88Q) (antibody, human IgG1, V domains shown, engineered human IgG1; also called II/III) VH: EVQLVESGGGLVQPGGSLRLSCAASGFTFSPFAWSWVRQAPGKGLEWVAKISPGGSWTYYSDTVTDRFTFSLDTSKSTAYLQMNSLRAEDTAVYYCARQLWGYYALDVWGQGTLVTVSS VL: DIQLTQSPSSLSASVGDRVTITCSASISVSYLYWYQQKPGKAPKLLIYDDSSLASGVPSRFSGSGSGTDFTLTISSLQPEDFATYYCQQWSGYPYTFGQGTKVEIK")
"binds"
>>> result("anti-IL-6 antibody, heavy chain variant II (M34W/G66D/I108V), light chain variant V (M32L/M50D/M88Q) (antibody, human IgG1, V domains shown, engineered human IgG1; also called II/V) VH: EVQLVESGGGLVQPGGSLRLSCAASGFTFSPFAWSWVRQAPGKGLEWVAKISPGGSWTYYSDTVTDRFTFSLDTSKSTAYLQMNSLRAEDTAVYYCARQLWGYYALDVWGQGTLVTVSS VL: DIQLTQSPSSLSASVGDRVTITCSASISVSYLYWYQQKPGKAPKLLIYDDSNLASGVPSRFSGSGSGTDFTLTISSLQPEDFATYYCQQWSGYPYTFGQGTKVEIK")
"binds"
>>> result("anti-IL-6 antibody, heavy chain variant I (M34I/G66D/I108V), light chain variant III (M32L/M50D/N52S/M88Q) (antibody, human IgG1, V domains shown, engineered human IgG1; also called I/III) VH: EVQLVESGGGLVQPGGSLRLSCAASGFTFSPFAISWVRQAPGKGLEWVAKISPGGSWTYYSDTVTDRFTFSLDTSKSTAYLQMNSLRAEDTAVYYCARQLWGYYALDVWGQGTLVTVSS VL: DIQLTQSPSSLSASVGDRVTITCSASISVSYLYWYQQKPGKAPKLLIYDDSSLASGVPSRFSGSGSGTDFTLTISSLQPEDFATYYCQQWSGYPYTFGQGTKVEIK")
"binds"

Enquiry: // lookup binding result for anti-IL-6 antibody, heavy chain variant II (M34W/G66D/I108V), light chain variant IV (M32L/M50A/N52S/M88Q) (antibody, human IgG1, V domains shown, engineered human IgG1; also called II/IV) VH: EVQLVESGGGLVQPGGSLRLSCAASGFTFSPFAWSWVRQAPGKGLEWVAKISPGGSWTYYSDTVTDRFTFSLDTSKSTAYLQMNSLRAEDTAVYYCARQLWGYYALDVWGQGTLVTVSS VL: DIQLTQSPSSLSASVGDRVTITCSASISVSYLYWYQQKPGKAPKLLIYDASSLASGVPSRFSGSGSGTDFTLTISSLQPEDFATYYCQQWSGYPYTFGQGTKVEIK
Return: binds
